Biological target: Cytochrome P450 2C19 (Homo sapiens) (UniProt P33261)
Sequence (P33261 whole entry, looked up): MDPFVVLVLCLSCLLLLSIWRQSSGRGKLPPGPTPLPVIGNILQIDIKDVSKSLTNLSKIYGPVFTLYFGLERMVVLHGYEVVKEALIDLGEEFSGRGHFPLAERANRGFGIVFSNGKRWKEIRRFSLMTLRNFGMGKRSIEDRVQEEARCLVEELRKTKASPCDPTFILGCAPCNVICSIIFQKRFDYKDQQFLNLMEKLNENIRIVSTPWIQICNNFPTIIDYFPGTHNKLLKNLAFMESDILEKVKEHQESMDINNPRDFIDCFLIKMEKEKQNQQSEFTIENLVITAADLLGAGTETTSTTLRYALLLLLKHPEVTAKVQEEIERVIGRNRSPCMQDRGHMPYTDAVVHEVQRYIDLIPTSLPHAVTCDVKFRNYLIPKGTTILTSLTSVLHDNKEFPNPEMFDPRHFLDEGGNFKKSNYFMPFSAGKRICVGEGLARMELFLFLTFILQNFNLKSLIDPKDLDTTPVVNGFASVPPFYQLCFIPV
Experiment: enhancers of cytochrome P450 2C19 turnover – biochemical, luminescence, primary screen (AID 1025);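 further: 0 = wells with 2.5 mM tranylcypromine and 1 = vehicle-only wells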
Settings: recombinant CYP2C19, luciferin-H EGE luminescence; at 5 µM; active compounds read high; 0 = fully inhibited enzyme, 1 = untreated enzyme
Among all 96,000 compounds or so, fewer than 10 were called active. Not all results are given here.
# activation factor annotations
RESULT_TYPE: activation factor

INSERT INTO results (compound, measured_result) VALUES
  ('CCOC(=O)/C(=C\c1ccc([N+](=O)[O-])cc1)C(=O)c1cc(C(C)=O)c(Nc2ccccc2)s1', 0.4),
  ('CN(C)/C=C(\C#N)C(=O)c1cccnc1Oc1cccc(F)c1', 0.6),
  ('N=c1ccn(CC(=O)NC(N)=O)c2ccccc12', 1.1),
  ('COc1ccc(/C=C2\CCCC3C2=NN(C(=O)c2scnc2C)C3c2ccc(OC)cc2)cc1 (stereo unspecified)', 0.7),
  ('CCCCN1C(=O)CC(N2CCOCC2)C1=O (stereo unspecified)', 1),
  ('O=C(N/N=C\c1cccc(Br)c1)c1ccccc1-n1cccc1', 0.3),
  ('O=c1c2ccccc2nc2n1C1(CCCCC1)Cc1ccccc1-2', 0.3),
  ('Oc1ccccc1CNc1ncc(Br)cc1Br', 0.6),
  ('CC(CC(=O)Nc1cc(C(F)(F)F)ccc1Cl)c1ccccc1 (stereo unspecified)', 0.4),
  ('CC(c1ccco1)N(C(=O)COc1ccccc1[N+](=O)[O-])c1ccccn1 (stereo unspecified)', 0.6),
  ('CCC(CC)C(=O)N1CC(=O)Nc2ccc(Br)cc2C1c1ccccc1 (stereo unspecified)', 0.5);
